# measurement_notes: Nile Red efflux blockade in pump-expressing yeast – validation compound set, multiplex, phenotypic, pilot screen (AID 588506);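 further: Nile Red retained in cells so higher fluorescence means more efflux inhibition; 0 = negative control wells and 1 = enniatin B 25 µM full block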
# assay_setup: S. cerevisiae pump-expressing triplex, Nile Red efflux flow cytometry; at 10 µM; active compounds read high; the pumps come from Candida albicans
Calls of active or inactive are those of the source.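 How the source made its calls: active means efflux inhibition above 0.42, the validation set average plus 4 SD; inconclusive means no clear call, values can overlap the other calls; inactive means the rest.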
readout_kind: efflux inhibition (fraction of control)

Examples from the recorded data:
>  <compound>
Cc1ccc(-n2cc(CNCCN3CCOC3=O)c(-c3ccc(F)cc3)n2)cc1

>  <data_value>
-0.36 (inactive)

$$$$
>  <compound>
O=C(O)c1cc2cc(Cl)cc(Cl)c2oc1=O

>  <data_value>
0.05 (inactive)

$$$$
>  <compound>
Cc1ncoc1C(=O)N1CCCC(C(=O)c2ccc(-c3ccccc3)c(F)c2)C1 (stereo not given)

>  <data_value>
0.01 (inactive)

$$$$
>  <compound>
C[C@]12CC[C@@H]3c4ccc(O)cc4C(=O)C[C@H]3[C@@H]1CC[C@@H]2O

>  <data_value>
0.37 (inactive)

$$$$
>  <compound>
CCOC(=O)Cn1c(C)cc(=O)c2ccccc21

>  <data_value>
0.3 (inactive)

$$$$

Give the reported efflux inhibition (fraction of control) for this compound. CCc1cc2c(=O)c(-c3nc(C)cs3)coc2cc1OC(C)C(=O)NCCO (stereo not given)
-0.2 (inactive)

Give the reported efflux inhibition (fraction of control) for this compound. "COc1cccc(-n2cc(CNCc3c(C(=O)N(C)C)nc4ccc(Cl)cn34)cn2)c1"
-0.26 (inactive)

Give the reported efflux inhibition (fraction of control) for this compound. "Clc1ccc2c(c1)CCc1cccnc1C2=C1CCNCC1"
-0.17 (inactive)

Give the reported efflux inhibition (fraction of control) for this compound. "COc1ccc2cc(C(=O)Nc3ccc(S(N)(=O)=O)cc3)sc(=O)c2c1OC"
0.19 (inactive)

Give the reported efflux inhibition (fraction of control) for this compound. "CCOC(=O)[C@H]1O[C@@H]1C(=O)N[C@@H](CC(C)C)C(=O)NCCC(C)C"
0.05 (inactive)
